# CONDITION CONTEXT: in water, 318.15 K
RESULT TYPE: solubility (mole fraction)
Would you mind answering with just the numeric figure?

Ask: Any idea what solubility (mole fraction) was measured for "O=c1cc(-c2ccccc2)oc2cc(O)cc(O)c12" ?
Result: 6.5e-05

* * *

# CONDITION CONTEXT: in water, 313.15 K
RESULT TYPE: solubility (mole fraction)
Would you mind answering with just the numeric figure?

Ask: Any idea what solubility (mole fraction) was measured for "O=c1cc(-c2ccccc2)oc2cc(O)cc(O)c12" ?
Result: 4.61e-05

* * *

# CONDITION CONTEXT: in ethanol, 293.15 K
RESULT TYPE: solubility (mole fraction)
Would you mind answering with just the numeric figure?

Ask: Any idea what solubility (mole fraction) was measured for "O=c1cc(-c2ccccc2)oc2cc(O)cc(O)c12" ?
Result: 0.00689

* * *

# CONDITION CONTEXT: in water, 308.15 K
RESULT TYPE: solubility (mole fraction)

Ask: Any idea what solubility (mole fraction) was measured for "O=c1cc(-c2ccccc2)oc2cc(O)cc(O)c12" ?
Result: 3.53e-05

* * *

# CONDITION CONTEXT: in ethanol, 308.15 K
RESULT TYPE: solubility (mole fraction)
Would you mind answering with just the numeric figure?

Ask: Any idea what solubility (mole fraction) was measured for "O=c1cc(-c2ccccc2)oc2cc(O)cc(O)c12" ?
Result: 0.00928

* * *

# CONDITION CONTEXT: in ethanol, 318.15 K
RESULT TYPE: solubility (mole fraction)
Would you mind answering with just the numeric figure?

Ask: Any idea what solubility (mole fraction) was measured for "O=c1cc(-c2ccccc2)oc2cc(O)cc(O)c12" ?
Result: 0.0121

* * *

# CONDITION CONTEXT: in ethanol, 303.15 K
RESULT TYPE: solubility (mole fraction)
Would you mind answering with just the numeric figure?

Ask: Any idea what solubility (mole fraction) was measured for "O=c1cc(-c2ccccc2)oc2cc(O)cc(O)c12" ?
Result: 0.0078

* * *

# CONDITION CONTEXT: in water, 303.15 K
RESULT TYPE: solubility (mole fraction)
Would you mind answering with just the numeric figure?

Ask: Any idea what solubility (mole fraction) was measured for "O=c1cc(-c2ccccc2)oc2cc(O)cc(O)c12" ?
Result: 2.38e-05
